# system-under-test: recombinant human His-ATG7 enzyme (Homo sapiens (Human))
# Sequence (O95352 whole entry): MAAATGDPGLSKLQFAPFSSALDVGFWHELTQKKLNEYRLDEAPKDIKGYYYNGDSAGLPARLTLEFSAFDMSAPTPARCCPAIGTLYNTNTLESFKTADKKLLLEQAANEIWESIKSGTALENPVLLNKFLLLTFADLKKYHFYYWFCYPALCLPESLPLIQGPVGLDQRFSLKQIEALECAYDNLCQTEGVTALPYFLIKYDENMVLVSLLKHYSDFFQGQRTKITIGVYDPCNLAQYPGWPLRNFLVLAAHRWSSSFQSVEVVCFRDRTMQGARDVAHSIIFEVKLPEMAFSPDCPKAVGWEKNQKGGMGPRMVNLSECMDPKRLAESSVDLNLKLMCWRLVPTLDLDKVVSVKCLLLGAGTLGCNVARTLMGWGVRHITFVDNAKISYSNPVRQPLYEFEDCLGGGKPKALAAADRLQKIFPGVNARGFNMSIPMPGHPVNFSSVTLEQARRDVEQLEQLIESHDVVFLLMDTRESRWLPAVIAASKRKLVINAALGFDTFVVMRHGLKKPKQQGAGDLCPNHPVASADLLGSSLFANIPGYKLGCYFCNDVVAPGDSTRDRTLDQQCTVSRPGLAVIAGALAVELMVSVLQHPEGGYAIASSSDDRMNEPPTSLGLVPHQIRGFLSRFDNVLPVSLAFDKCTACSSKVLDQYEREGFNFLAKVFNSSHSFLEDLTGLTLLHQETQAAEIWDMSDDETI
# method-description: ATG7 Enzyme Assay (HTRF/FRET, ATG3-GST and Flag-Gabarap)
Recorded IC50 by entry

compound: CC#Cc1nn([C@@H]2O[C@H](COS(N)(=O)=O)[C@@H](O)[C@H]2O)c2ncnc(N)c12 [Compound I-14]
IC50: 100 to 500 nM
//
compound: Nc1ncnc2c1c(SCc1ccccc1)nn2[C@@H]1O[C@H](COS(N)(=O)=O)[C@@H](O)[C@H]1O [Compound I-52]
IC50: 20 to 50 nM
//
compound: CC(C)(C)Sc1nn([C@@H]2O[C@H](COS(N)(=O)=O)[C@@H](O)[C@H]2O)c2ncnc(N)c12 [Compound I-53]
IC50: 20 to 50 nM
//
compound: CC(C)Oc1ccc(Sc2nn([C@H]3C[C@H](O)[C@@H](COS(N)(=O)=O)O3)c3ncnc(N)c23)cc1 [Compound I-184]
IC50: 50 to 100 nM
